Can you tell me composite z-score for the items I'm about to list?
# ASSAY SYSTEM: Concanavalin-A (Canavalia ensiformis) (UniProt P02866)
# Sequence (P02866 whole entry, looked up): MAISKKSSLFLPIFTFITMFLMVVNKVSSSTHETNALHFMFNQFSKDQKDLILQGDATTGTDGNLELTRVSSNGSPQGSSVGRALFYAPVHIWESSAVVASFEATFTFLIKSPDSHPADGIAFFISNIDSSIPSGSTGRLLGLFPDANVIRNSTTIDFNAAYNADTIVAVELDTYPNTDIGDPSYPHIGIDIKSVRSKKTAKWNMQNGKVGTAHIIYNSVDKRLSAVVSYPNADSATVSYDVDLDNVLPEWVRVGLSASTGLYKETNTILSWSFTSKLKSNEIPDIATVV
# TEST DESCRIPTION: ConA small-molecule binders, primary screen, artefact control for SMM control protein annotation, biochemical, small-molecule microarray, Alexa647 label, 635 nm (AID 1127);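 also: z combines 667 nm emission intensity with signal-to-noise across three replicate slides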
# STATED CONDITIONS: ConA-A647 binding fluorescence, higher = more signal
One number for each entry.

Could you tell me composite z-score for each of these molecules? They are listed below.
1. CC[C@H]1C2=C3C(CC[C@H]4C(OCc5ccc(F)cc5C(F)(F)F)OC[C@](C)([C@@H]34)N(C(=O)OC(C)(C)C)C2)C(COC)C1COC (stereo partly specified)
2. COc1ccc(C#Cc2ccc3c(c2)[C@]2(C(=O)N3)[C@H](c3ccc(O)cc3)N3[C@H](c4ccccc4)[C@H](c4ccccc4)OC(=O)[C@H]3[C@@H]2C(=O)O)cc1
3. CCCCCCCCCCC(O)C1C=CC2C(=O)N(C)C(=O)C2N1Nc1ccc([N+](=O)[O-])cc1[N+](=O)[O-] (stereo unspecified)
4. O=C1NC(=O)C2C1C=CC(C(O)c1cccc3ccccc13)N2Nc1ccc(Cl)cc1Cl (stereo unspecified)
5. CCCNC(=O)[C@@H]1c2ccccc2C(=O)N(C(C)C)[C@H]1c1ccc(CO)cc1
6. C=C(C)[C@@H]1CC=C(C(O)C2C=CC3C(=O)N(c4ccccc4)C(=O)C3N2Nc2ccccc2F)CC1 (stereo partly specified)

A:
[0.401, 0.868, 1.14, 1.07, 0.208, 1.13]

Could you tell me composite z-score for each of these molecules? They are listed below.
1. CC1CC/C=C\[C@H]2OC34C=CCN(c5ccc(Cl)cc5)C(=O)[C@H]3N(CCCCCO)C(=O)[C@]4(C)C2C(=O)O1 (stereo partly specified)
2. C=CC1c2cc(O)c(OC)cc2CCN1Cc1cc2c(cc1Br)OCO2 (stereo unspecified)
3. Cc1ccc(S[C@]2(C(=O)O)CC(=O)N(C3Cc4ccccc4C3)[C@@H]2c2ccc(CO)cc2)cc1
4. COC(=O)[C@@]1(Cc2ccc(OC)cc2)[C@@H]2C(=CC(=O)[C@H]2CC(=O)C(=O)N(C)C)CN1C(=O)c1ccccc1
5. O=C1c2ccccc2[C@](Cc2ccccc2I)(C(=O)NCC(F)(F)F)[C@H](c2ccc(CO)cc2)N1C1CCCCC1
6. CCOC(=O)C1CCCCN1 (stereo unspecified)
7. CO[C@H]1O[C@H](CO)[C@@H](OC(=O)Nc2ccccc2-c2ccccc2)[C@H](OC(=O)Nc2ccc3c(c2)OCO3)[C@H]1OC(=O)Nc1ccc2c(c1)OCO2

A:
[-1.03, 0.142, -0.458, 1.11, 1.16, 0.562, 1.06]

Could you tell me composite z-score for each of these molecules? They are listed below.
1. [N-]=[N+]=NCc1ccccc1C[C@]1(C(N)=O)N=C(c2ccc(OCCCO)cc2)O[C@H]1c1ccccc1
2. CCOC(=O)C1=CC[C@@H](c2cccc(Cl)c2)N(S(=O)(=O)c2ccc(C)cc2)C1
3. COc1ccc([Si](C)(C)[C@@H]2[C@@H](CC(=O)N3Cc4ccccc4C[C@H]3CO)O[C@]3(C(=O)N(C)c4ccccc43)[C@H]2C)cc1

A:
1: 0.533; 2: 0.721; 3: 1.17
